Catalogue of compounds with associated survival
- Tested on: DeltatarO mutant
- test summary: S. aureus survival, RN4220 and DeltatarO strains – OD600, teichoic acid synthesis inhibitors, primary screen (AID 463173)
- test parameters: S. aureus RN4220 wild type/DeltatarO growth, OD600, 18 h, hits give low values, screened at 18.75 µg/mL (by protocol)
The campaign covered roughly 52,000 compounds. About 4,300 (8.3%) were called active. Shown is part of a subset that was picked to be rich in actives.
The figure you give is taken to be in %; do not add the unit.

# smiles representation, endpoint label, recorded number
data = [
    ("COc1ccccc1NC(=O)CSc1nnc2c3ccccc3n(C(C)C)c2n1", "survival", 33),
    ("CCOc1ccc(CCNC(=O)CSc2nc3ccccc3nc2Cc2ccc(C)cc2)cc1OCC", "survival", 112),
    ("COc1ccccc1NC(=O)CSc1nnc2c(n1)[nH]c1ccccc12", "survival", 77),
]

Requested field: survival. Item: COc1cccc(Nc2nnc(-c3cc4ccc(O)cc4oc3=O)s2)c1
85

Try COc1ccc(CNC(=O)Nc2ccc3c(c2)N(C)C(=O)c2ccccc2S3)cc1OC next.
61

Try CCCCNC(=O)CSc1nc2ccccc2nc1Cc1ccc(C)cc1 next.
87

Try COc1ccc(OCC(=O)Nc2ccc3oc(-c4ccncc4)nc3c2)cc1 next.
87

* * *

- Test system: DeltatarO mutant
- test summary: S. aureus survival, RN4220 and DeltatarO strains – OD600, teichoic acid synthesis inhibitors, primary screen (AID 463173)
- test parameters: S. aureus RN4220 wild type/DeltatarO growth, OD600, 18 h, screened at 18.75 µg/mL (by protocol)
Screen size: about 52,000 compounds; about 4,300 (8.3%) were called active. No stated cut-off is given here; in the data, active means survival mostly below about 52% (no sharp cut-off); inactive means mostly above about 56%. Shown is part of a subset that was picked to be rich in actives.
Please state which outcome applies, choosing from active, inactive

Answered cases to consult:
# smiles representation, answer label
records = [
    ("Cc1cccc(N2CCN(C(=O)CCn3c(=O)c4cccn4c4cccnc43)CC2)c1C", "inactive"),
    ("CCCCOc1ccc(CN2C(=O)C(=O)c3cc(Br)cc(C)c32)cc1OC", "inactive"),
    ("Cc1ccc(CN2C(=O)C(=O)c3cc(Br)cc(C)c32)cc1", "active"),
]

Assay outcome for CCc1ccc(CNC(=O)c2cnc(N3CCCCC3)c3ccccc23)cc1 : what was it?
inactive

* * *

- Test system: DeltatarO mutant
- test summary: S. aureus survival, RN4220 and DeltatarO strains – OD600, teichoic acid synthesis inhibitors, primary screen (AID 463173)
- test parameters: S. aureus RN4220 wild type/DeltatarO growth, OD600, 18 h, hits give low values, screened at 18.75 µg/mL (by protocol)
About 4,300 (8.3%) of roughly 52,000 compounds were called active. The sample as a whole holds a higher share of actives than the screen did.
Simple rule here: survival less than 80% is 1, otherwise -1.

# compound, answer label
rows = [
    ("COc1cccc(CNC(=O)CN2C(=O)COc3ccc(S(=O)(=O)N4CCOCC4)cc32)c1", -1),
    ("COc1cc(C)ccc1OCCSc1nc2ccc(NC(=O)c3cccs3)cc2s1", 1),
    ("COc1ccc(NC(=O)Cn2nnnc2-c2ccccc2F)c(C)c1", 1),
    ("Cc1n[nH]c(=S)n1CC1CCCO1 (configuration not stated)", 1),
    ("COc1ccc(C2NCCS2)cc1 (configuration not stated)", 1),
]

Report whether reported survival is lower than 80% (strictly) for CN(Cc1ccccc1)c1nc2c(S(=O)(=O)c3ccccc3)nnn2c2ccsc12
1

Try COc1cccc(CNC(=O)CSC2=Nc3ccccc3C3=NC(C)C(=O)N23)c1OC (configuration not stated) next.
-1

Try Cc1ccc(CNS(=O)(=O)c2cc3c(cc2Cl)NC(=O)CO3)o1 next.
-1

Try CCc1cccc(C)c1NC(=O)COCc1cc(-c2ccc3c(c2)OCO3)on1 next.
-1

Try Cc1ccc(CCNc2nc3c(S(=O)(=O)c4ccc(C)cc4)nnn3c3ccsc23)cc1 next.
-1
